PROTOCOL_NOTES: in vivo
TEST_PARAMETERS: both, CD-1, mouse, in vivo, po
ASSAY_ENDPOINT: NOAEL at 7 days (mg/kg/day)
Just the number in mg/kg/day, nothing appended.

IN: Quick one: NOAEL at 7 days for OC[C@@H](O)[C@@H](O)[C@@H](O)CO ?
OUT: 3000

* * *

PROTOCOL_NOTES: Single oral dose PK
Assay type: in vivo, CD-1 mouse
TEST_PARAMETERS: CD-1, mouse, plasma; single PO 1.0 g/kg, female
ASSAY_ENDPOINT: Cmax (µg/mL)
Number only, in µg/mL; omit the unit.

IN: If you can, please state the reported Cmax value of OC[C@@H](O)[C@@H](O)[C@@H](O)CO .
OUT: 124

* * *

PROTOCOL_NOTES: Single intravenous dose PK
Type: in vivo, Bama minipig
TEST_PARAMETERS: Bama, minipig, plasma; IV 100 mg/kg, male; read-out: T1/2 (converted)
ASSAY_ENDPOINT: half-life (min)
Numbers only here, please. The scale is min.

IN: Name the reported half-life value associated with the compound OC[C@@H](O)[C@@H](O)[C@@H](O)CO [ribitol, (2R,3s,4S)-Pentane-1,2,3,4,5-pentol]
OUT: 46.4

* * *

PROTOCOL_NOTES: Single oral dose PK
Type: in vivo, CD-1 mouse
TEST_PARAMETERS: CD-1, mouse, plasma; single PO 0.3 g/kg, male; read-out: Tmax
ASSAY_ENDPOINT: Tmax (min)
State just the number; it will be interpreted in min.

IN: Param item = OC[C@@H](O)[C@@H](O)[C@@H](O)CO ; retrieve measured Tmax.
OUT: 30

* * *

PROTOCOL_NOTES: 28-day repeat-dose oral toxicokinetics
Format: in vivo, Bama minipig
TEST_PARAMETERS: female, Bama, minipig, plasma, po, 0.1 g/kg, 0.1 g/kg/dose BID, Day 28, Female; median (range)
ASSAY_ENDPOINT: Tmax (h)
Express it in h; write the number only.

IN: Quick check: Tmax of OC[C@@H](O)[C@@H](O)[C@@H](O)CO [ribitol, (2R,3s,4S)-Pentane-1,2,3,4,5-pentol] ?
OUT: 7

* * *

PROTOCOL_NOTES: 28-day repeat-dose oral toxicokinetics
Format: in vivo, Bama minipig
TEST_PARAMETERS: male, Bama, minipig, plasma, po, 0.1 g/kg, 0.1 g/kg/dose BID, Day 28, Male; mean ± SD; read-out: Cmax
ASSAY_ENDPOINT: Cmax (ng/mL)
# value in ng/mL; strip the unit string

IN: Would you mind telling me what Cmax value was observed for OC[C@@H](O)[C@@H](O)[C@@H](O)CO ?
OUT: 37200

* * *

PROTOCOL_NOTES: Single intravenous dose PK
Format: in vivo, Bama minipig
TEST_PARAMETERS: both sexes, Bama, plasma; minipig, IV, range; read-out: Volume of distribution at steady state (Vss)
ASSAY_ENDPOINT: Vd

IN: Param item = OC[C@@H](O)[C@@H](O)[C@@H](O)CO [ribitol, (2R,3s,4S)-Pentane-1,2,3,4,5-pentol] ; retrieve measured Vd.
OUT: 0.417 to 0.603 L/kg

* * *

PROTOCOL_NOTES: 28-day repeat-dose oral toxicokinetics
Assay type: in vivo, CD-1 mouse
TEST_PARAMETERS: female, CD-1, mouse, plasma, po, 1.5 g/kg, 1.5 g/kg/dose BID, Day 28, Female
ASSAY_ENDPOINT: Tmax (h)
Give the value in h but do not write h after it.

IN: What measured Tmax goes with OC[C@@H](O)[C@@H](O)[C@@H](O)CO ?
OUT: 8.5
